# combination Emax per record follows
Test system: WSU-NHL (B-Cell Non-Hodgkin's Lymphoma)
test-description: combination Emax (second highest fraction inhibited in the dose matrix, 72 h); higher = more inhibition; extreme values may be limits of the assay
reported-endpoint: combination Emax

1. COc1cccc(OCCCN)c1-c1cc(Nc2cnc(C#N)cn2)n[nH]1 [Prexasertib] + CCc1c2c(nc3ccc(O)cc13)-c1cc3c(c(=O)n1C2)COC(=O)[C@]3(O)CC [SN-38] (first compound max 1 µM, 7x7, partner max 0.3 µM)    1
2. Cc1c2c(nn1C)CSCc1cc(n(C)n1)CSc1cc(c3ccccc3c1)OCCCc1c(C(=O)O)n(C)c3c-2c(Cl)ccc13 [AZD5991] + C=CCn1c(=O)c2cnc(Nc3ccc(N4CCN(C)CC4)cc3)nc2n1-c1cccc(C(C)(C)O)n1 [AZD1775] (first compound max 1 µM, partner max 1 µM)    0.954
3. CN(CCO)CC[C@H](CSc1ccccc1)Nc1ccc(S(=O)(=O)NC(=O)c2ccc(N3CCC([C@@H](O)c4ccccc4-c4ccc(Cl)cc4)CC3)cc2)cc1S(=O)(=O)C(F)(F)F [AZD4320] + C[C@@H](Nc1cc(F)cc(F)c1)c1cc(C(=O)N(C)C)cc2c(=O)cc(N3CCOCC3)oc12 [AZD8186] (first compound max 1 µM, 7x7, partner max 3 µM)    1
4. CS(=O)(=O)CCNCc1ccc(-c2ccc3ncnc(Nc4ccc(OCc5cccc(F)c5)c(Cl)c4)c3c2)o1 [Lapatinib] + Cn1cnc2c(F)c(Nc3ccc(Br)cc3Cl)c(C(=O)NOCCO)cc21 [Selumetinib] (first compound max 10 µM, 7x7, partner max 10 µM)    0.788
5. Cc1c2c(nn1C)CSCc1cc(n(C)n1)CSc1cc(c3ccccc3c1)OCCCc1c(C(=O)O)n(C)c3c-2c(Cl)ccc13 [AZD5991] + Nc1ccn([C@@H]2O[C@H](CO)[C@@H](O)C2(F)F)c(=O)n1 [Gemcitabine] (first compound max 1 µM, 7x7, partner max 0.3 µM)    0.967
6. COc1cc2c(cc1OCCCCCOc1cc3c(cc1OC)C(=O)N1C=C(C)C[C@H]1C=N3)N=C[C@@H]1CC(C)=CN1C2=O [SG3199] + O=C(c1cc(Cc2n[nH]c(=O)c3ccccc23)ccc1F)N1CCN(C(=O)C2CC2)CC1 [Olaparib] (first compound max 0.001 µM, 7x7, partner max 10 µM)    0.763
7. Cc1c2c(nn1C)CSCc1cc(n(C)n1)CSc1cc(c3ccccc3c1)OCCCc1c(C(=O)O)n(C)c3c-2c(Cl)ccc13 [AZD5991] + Cn1cnc2c(F)c(Nc3ccc(Br)cc3Cl)c(C(=O)NOCCO)cc21 [Selumetinib] (first compound max 1 µM, 7x7, partner max 3 µM)    0.934
8. CC1(C)CCC(CN2CCN(c3ccc(C(=O)NS(=O)(=O)c4ccc(NCC5CCOCC5)c([N+](=O)[O-])c4)c(Oc4cnc5[nH]ccc5c4)c3)CC2)=C(c2ccc(Cl)cc2)C1 [Venetoclax] + COc1cc(Nc2ncc3c(n2)-c2ccc(Cl)cc2C(c2c(F)cccc2OC)=NC3)ccc1C(=O)O [Alisertib] (first compound max 1 µM, 7x7, partner max 10 µM)    0.985
9. CCN(CCO)CCCOc1ccc2c(Nc3cc(CC(=O)Nc4cccc(F)c4)[nH]n3)ncnc2c1 [AZD2811] + O=C(c1cc(Cc2n[nH]c(=O)c3ccccc23)ccc1F)N1CCN(C(=O)C2CC2)CC1 [Olaparib] (first compound max 1 µM, 7x7, partner max 10 µM)    0.931
10. CN(C)CCCOc1ccc(-c2ccc3ncc4c(c3c2)n(C2CCOCC2)c(=O)n4C)cn1 [AZD0156] + C[C@@H]1COCCN1C2=NC(=NC(=C2)C3(CC3)[S@](=N)(=O)C)C4=C5C=CNC5=NC=C4 [AZD6738] (first compound max 1 µM, 7x7, partner max 10 µM)    0.998
11. CN(CCO)CC[C@H](CSc1ccccc1)Nc1ccc(S(=O)(=O)NC(=O)c2ccc(N3CCC([C@@H](O)c4ccccc4-c4ccc(Cl)cc4)CC3)cc2)cc1S(=O)(=O)C(F)(F)F [AZD4320] + CS(=O)(=O)CCNCc1ccc(-c2ccc3ncnc(Nc4ccc(OCc5cccc(F)c5)c(Cl)c4)c3c2)o1 [Lapatinib] (first compound max 1 µM, 7x7, partner max 10 µM)    0.945
12. C[C@@H]1COCCN1c1cc(C2([S@](C)(=N)=O)CC2)nc(-c2ccnc3[nH]ccc23)n1 [AZD6738] + Nc1ccn([C@@H]2O[C@H](CO)[C@@H](O)C2(F)F)c(=O)n1 [Gemcitabine] (first compound max 10 µM, 7x7, partner max 0.3 µM)    0.993
13. Cc1c2c(nn1C)CSCc1cc(n(C)n1)CSc1cc(c3ccccc3c1)OCCCc1c(C(=O)O)n(C)c3c-2c(Cl)ccc13 [AZD5991] + CN(C)CCCOc1ccc(-c2ccc3ncc4c(c3c2)n(C2CCOCC2)c(=O)n4C)cn1 [AZD0156] (first compound max 1 µM, 7x7, partner max 1 µM)    0.92

Numbers sourced from the supplement of paper PMC11061612.
